System: myocardium injury model of rats induced by ISO
Assay: Myocardium injury (myocardial ischemia) model of rats induced by ISO
Type: in vivo, SD rats
Conditions: myocardial tissue homogenate of rats with ISO myocardium injury, drug 0.76 mg/kg, n=8
Here, each record is paired with measured Activity of LDH data.

# compound, readoutUnits, Activity of LDH
rows = [
    ("CC12CCC3C(CC=C4CC(OC(=O)CCC(=O)OC5CCC6(C)C(=CCC7C8CCC(=O)C8(C)CCC76)C5)CCC43C)C1CCC2=O (stereo not shown)", "U/L", 292.27),
    ("C[C@]12CC[C@H](OC(=O)CCCC(=O)O[C@H]3CC[C@@]4(C)C(=CC[C@@H]5[C@@H]4CC[C@]4(C)C(=O)CC[C@@H]54)C3)CC1=CC[C@@H]1[C@@H]2CC[C@]2(C)C(=O)CC[C@@H]12", "U/L", 160.27),
    ("C[C@]12CC[C@H](OC(=O)CC(=O)O[C@H]3CC[C@@]4(C)C(=CC[C@@H]5[C@@H]4CC[C@]4(C)C(=O)CC[C@@H]54)C3)CC1=CC[C@@H]1[C@@H]2CC[C@]2(C)C(=O)CC[C@@H]12", "U/L", 201.33),
    ("C[C@]12CC[C@H](OC(=O)CCCCC(=O)O[C@H]3CC[C@@]4(C)C(=CC[C@@H]5[C@@H]4CC[C@]4(C)C(=O)CC[C@@H]54)C3)CC1=CC[C@@H]1[C@@H]2CC[C@]2(C)C(=O)CC[C@@H]12", "U/L", 157.39),
]

---

Here, each record is paired with measured Σ ST data.
Test system: myocardium injury model of rats induced by ISO
Assay: Myocardium injury (myocardial ischemia) model of rats induced by ISO
Format: in vivo, SD rats
Settings: rats, ISO s.c., drug 0.76 mg/kg, 24 h, n=8

# compound, readoutUnits, Σ ST
data = [
    ("C[C@]12CC[C@H](OC(=O)CCCCC(=O)O[C@H]3CC[C@@]4(C)C(=CC[C@@H]5[C@@H]4CC[C@]4(C)C(=O)CC[C@@H]54)C3)CC1=CC[C@@H]1[C@@H]2CC[C@]2(C)C(=O)CC[C@@H]12", "mv", 0.57),
    ("C[C@]12CC[C@H](OC(=O)CC(=O)O[C@H]3CC[C@@]4(C)C(=CC[C@@H]5[C@@H]4CC[C@]4(C)C(=O)CC[C@@H]54)C3)CC1=CC[C@@H]1[C@@H]2CC[C@]2(C)C(=O)CC[C@@H]12", "mv", 0.52),
    ("C[C@]12CC[C@H](OC(=O)CCCC(=O)O[C@H]3CC[C@@]4(C)C(=CC[C@@H]5[C@@H]4CC[C@]4(C)C(=O)CC[C@@H]54)C3)CC1=CC[C@@H]1[C@@H]2CC[C@]2(C)C(=O)CC[C@@H]12", "mv", 0.50),
    ("CC12CCC3C(CC=C4CC(OC(=O)CCC(=O)OC5CCC6(C)C(=CCC7C8CCC(=O)C8(C)CCC76)C5)CCC43C)C1CCC2=O (stereo not shown)", "mv", 0.47),
]

---

Here, each record is paired with measured Number of error data.
System: cerebral ischemia-reperfusion injury of mice
Assay: Memory step-through test after cerebral ischemia-reperfusion injury
Format: in vivo, NIH mice
Conditions: 4.5 mg/kg intragastric once a day for 10 days, n=10

# compound, Number of error (n)
records = [
    ("C[C@]12CC[C@H](OC(=O)CCCC(=O)O[C@H]3CC[C@@]4(C)C(=CC[C@@H]5[C@@H]4CC[C@]4(C)C(=O)CC[C@@H]54)C3)CC1=CC[C@@H]1[C@@H]2CC[C@]2(C)C(=O)CC[C@@H]12", 3.1),
    ("C[C@]12CC[C@H](OC(=O)CCCCC(=O)O[C@H]3CC[C@@]4(C)C(=CC[C@@H]5[C@@H]4CC[C@]4(C)C(=O)CC[C@@H]54)C3)CC1=CC[C@@H]1[C@@H]2CC[C@]2(C)C(=O)CC[C@@H]12", 2.9),
    ("CC12CCC3C(CC=C4CC(OC(=O)CCC(=O)OC5CCC6(C)C(=CCC7C8CCC(=O)C8(C)CCC76)C5)CCC43C)C1CCC2=O (stereo not shown)", 1.2),
    ("C[C@]12CC[C@H](OC(=O)CC(=O)O[C@H]3CC[C@@]4(C)C(=CC[C@@H]5[C@@H]4CC[C@]4(C)C(=O)CC[C@@H]54)C3)CC1=CC[C@@H]1[C@@H]2CC[C@]2(C)C(=O)CC[C@@H]12", 2.5),
]

This collection of values is drawn from patent US20040171594A1.
